Molecular target: T1, human MCP-1 (human, UniProt P13500 24-99)
T1 construct: also called hMCP-1; huMCP-1
Assay: ELISA on plate-coated human MCP-1, anti-human IgG-HRP; y axis unlabelled, OD 405 nm per paragraph 382
Could you please report measured EC50 (read off the curve) for the items listed next?

Check out these entries, answers already filled in.
| binder | EC50 (read off the curve) |
| --- | --- |
| chimeric 11K2 antibody (antibody, human IgG1, kappa, V domains shown, murine 11K2 variable domains with human IgG1 and kappa constant regions; also called Chimera; ch11K2) VH: EVQLQQSGAELVKAGASVKLSCPASGLNIKDTYMHWVKQRPEQGLEWIGRIDPANGNTKFDPKFQGKATITADTSSNTAYLQLSSLTSEDTAVYYCARGVFGFFDYWGQGTTLTVSS VL: DIQMTQSSSSFSVSLGDRVTITCKATEDIYNRLAWYQQKPGSAPRLLISGATSLETGVPSRFSGSGSGKDYTLSITSLQTEDVATYYCQQFWSAPYTFGGGTKLEIKR | ~0.02 mg/L |
| humanized 11K2 H2-L2 (antibody, human IgG1, V domains shown, human IgG1 kappa) VH: QVQLVQSGAEVKKPGSSVKVSCKASGLTISDTYMHWVRQAPGQGLEWMGRIDPANGNTKFDPKFQGRVTITADTSTSTAYMELSSLRSEDTAVYYCARGVFGFFDYWGQGTTVTVSS VL: DIQMTQSPSSLSASVGDRVTITCKATEDIYNRLAWYQQKPGKAPKLLISGATSLETGVPSRFSGSGSGTDYTLTISSLQPEDFATYYCQQFWSAPYTFGGGTKVEIKR | ~0.02 mg/L |

Now look at this one.
Indicate its recorded EC50 (read off the curve); the binder in question is humanized 11K2 H1-L2 (antibody, human IgG1, V domains shown, human IgG1 kappa) VH: QVQLVQSGAEVKKPGSSVKVSCKASGLNIKDTYMHWVRQAPGQGLEWIGRIDPANGNTKFDPKFQGRATITADTSTSTAYMELSSLRSEDTAVYYCARGVFGFFDYWGQGTTVTVSS VL: DIQMTQSPSSLSASVGDRVTITCKATEDIYNRLAWYQQKPGKAPKLLISGATSLETGVPSRFSGSGSGTDYTLTISSLQPEDFATYYCQQFWSAPYTFGGGTKVEIKR
~0.02 mg/L
